Recorded ligation selection enrichment for the following variants
B1: library; a variant is named by its letters at N, in order (parent)
chain: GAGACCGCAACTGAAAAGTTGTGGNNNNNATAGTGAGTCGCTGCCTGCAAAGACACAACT

Variants of: B1
assay_details: ligation selection enrichment (abundance after / before one-round selection) (fold); higher = more template-directed ligation activity
cond: with T7Psub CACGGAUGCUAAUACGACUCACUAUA; MgCl2 25 mM; 42 °C; 4 h; pH 8.5
Give the value as a plain number.

1. TATGG
0.616
2. TCAAC
0.48
3. ACGCC
0.153
4. GGACT
0.703
5. GGCAG
0.55

Query: Indicate the recorded ligation selection enrichment value for this variant: `GTCAA`
Reply: 0.766

Query: Specify measured ligation selection enrichment for `TGGCC` .
Reply: 0.286
